For each of the compounds below, state its residual activity.
Target: Inhibitor of nuclear factor kappa-B kinase subunit beta (Homo sapiens)
Details: at 1 µM
One number for each entry, in %.

Check out these entries, answers already filled in.
# compound, target system, measured property, unit of measurement, observed value
rows = [
    ("CC(C)n1cnc2/c(=N/c3cccc(Cl)c3)nc(NCCO)[nH]c21", "Inhibitor of nuclear factor kappa-B kinase subunit beta (Homo sapiens)", "residual activity", "%", 102),
    ("O=C1Nc2ccccc2/C1=C1/Nc2ccccc2/C1=N\\OCCC(O)CO (stereo unspecified)", "Inhibitor of nuclear factor kappa-B kinase subunit beta (Homo sapiens)", "residual activity", "%", 104),
    ("N#CC(C#N)=C(N)/C(C#N)=C/c1ccc(O)cc1", "Inhibitor of nuclear factor kappa-B kinase subunit beta (Homo sapiens)", "residual activity", "%", 99),
    ("C[C@@H](N)[C@H]1CC[C@H](C(=O)Nc2ccncc2)CC1", "Inhibitor of nuclear factor kappa-B kinase subunit beta (Homo sapiens)", "residual activity", "%", 87),
    ("CC(C)n1cnc2c(NCc3ccccc3)nc(NCCCO)nc21", "Inhibitor of nuclear factor kappa-B kinase subunit beta (Homo sapiens)", "residual activity", "%", 110),
]

Here's the next entry for you.
Tell me the measured residual activity of `CCOc1cc2ncnc(Nc3cccc(Br)c3)c2cc1OCC` , please.
97
